tested on: HEK-293T; experiment: Multiplex assay against HEK293T; type: toxicity, cell-based; conditions: human, 24 h, 1 µM, compound concentration 1 uM, replicate 2
Quantity kind: Population Healthy Nuclei (%)
Give bare numbers, in %.

{"columns": ["Molecule", "Unit", "Reported"],
 "data": [
  ["O=C(Nc1ccc(-c2ccnc(Nc3ccc(N4CCOCC4)cc3)n2)cc1)[C@@H]1CCCN1", "%", 63],
  ["CCN1CCN(Cc2ccc(Nc3ncc(F)c(-c4cc(F)c5nc(C)n(C(C)C)c5c4)n3)nc2)CC1.CS(=O)(=O)O", "%", 45],
  ["Cc1ccc(C(=O)Nc2cccc(C(F)(F)F)c2)cc1Nc1nc(-c2cccnc2)nc2c1cnn2C", "%", 43]
]}

List reported Population Healthy Nuclei (%) for each of these molecules:
1. C=C1/C(=C\C=C2/CCC[C@]3(C)[C@@H]([C@H](C)/C=C/[C@H](C)C(C)C)CC[C@@H]23)C[C@@H](O)C[C@@H]1O
2. CN1C2CCC1CC(OC(c1ccc(F)cc1)c1ccc(F)cc1)C2.Cl (stereo not given)

*A*
[59, 49]

====

tested on: U2OS; test: Multiplex assay against U2OS; format: toxicity, cell-based; details: human, 48 h, 10 µM, compound concentration 10 uM, replicate 1
Mark MET only for Population Normal (%) values smaller than 90%; exact matches and larger values are NOT MET.

{"columns": ["Compound", "Class"],
 "data": [
  ["Cl.Oc1ccc2c3c1O[C@H]1c4[nH]c5c(c4C[C@@]4(O)[C@@H](C2)N(CC2CC2)CC[C@]314)C[C@@]1(O)[C@H]2Cc3ccc(O)c4c3[C@@]1(CCN2CC1CC1)[C@H]5O4", "NOT MET"]
]}

*Q* Consider CCCn1c(=O)c2[nH]c(-c3cnn(Cc4cccc(C(F)(F)F)c4)c3)nc2n(CC)c1=O . Does its Population Normal (%) lie strictly below 90%?
*A* MET

*Q* Consider CNc1cc(Oc2cc(C(=O)Nc3cc(N4CCN(C)CC4)cc(C(F)(F)F)c3)ccc2C)ncn1 . Does its Population Normal (%) lie strictly below 90%?
*A* MET

*Q* Consider Cc1cn(-c2cc(NC(=O)c3ccc(C)c(Nc4nccc(-c5cccnc5)n4)c3)cc(C(F)(F)F)c2)cn1 . Does its Population Normal (%) lie strictly below 90%?
*A* MET

====

test system: HEK-293T; experiment: Multiplex assay against HEK293T; format: toxicity, cell-based; conditions: human, 48 h, 10 µM, compound concentration 10 uM, replicate 2
Quantity kind: Total Cell Count
Answers are plain numbers.

Example entries and their recorded answers appear below.
{"columns": ["Molecule", "Experimental system", "Total Cell Count"],
 "data": [
  ["Cc1ccc(C(=O)Nc2cccc(C(F)(F)F)c2)cc1Nc1nc(-c2cccnc2)nc2c1cnn2C", "HEK-293T", 209],
  ["CN1CCN(C(=O)C(C)(C)c2ccc(C(=O)Nc3cn4cc(-c5ccncc5)ccc4n3)cc2)CC1", "HEK-293T", 142],
  ["CCn1c(=O)c(-c2ccc(-c3cncs3)cc2Cl)cc2cnc(Nc3ccc(N4CCN(C)CC4)cc3)nc21", "HEK-293T", 238],
  ["CCCS(=O)(=O)c1nc(NC2CC2)cc(-c2ccc3c(ccn3C3CC(C)(C)NC(C)(C)C3)c2)n1", "HEK-293T", 253],
  ["O=C1NC(=O)C(c2cnc3ccccn23)=C1c1cn2c3c(cc(F)cc13)CN(C(=O)N1CCCCC1)CC2", "HEK-293T", 159]
]}

List reported Total Cell Count for each of these molecules:
1. O=C(Cc1ccc(-c2ccc(OCCN3CCOCC3)cc2)cn1)NCc1ccccc1
2. CCOc1cc(C(=O)N2CCC(N3CCN(C)CC3)CC2)ccc1Nc1ncc2c(n1)N(C1CCCC1)c1ccccc1C(=O)N2C

*A*
[145, 200]

List reported Total Cell Count for each of these molecules:
1. Cl.O=C(c1ccc(Nc2nccc(-c3cc4ccccc4s3)n2)cc1)N1CCC(N2CCCC2)CC1
2. O=C1N/C(=N/c2ccccc2F)S/C1=C\c1ccc(C(=O)O)cc1

*A*
1. 146
2. 534

List reported Total Cell Count for each of these molecules:
1. CCOc1cc2ncc(C#N)c(Nc3ccc(OCc4ccccn4)c(Cl)c3)c2cc1NC(=O)/C=C/CN(C)C
2. CCCn1c(=O)c2[nH]c(-c3cnn(Cc4cccc(C(F)(F)F)c4)c3)nc2n(CC)c1=O
3. CNc1cc(Oc2cc(C(=O)Nc3cc(N4CCN(C)CC4)cc(C(F)(F)F)c3)ccc2C)ncn1
4. O=C(Nc1ccc(-n2nc(-c3cccnc3)cc2C(F)(F)F)cn1)c1ccc(-c2ccccc2)c(F)c1
5. Cc1cn(-c2cc(NC(=O)c3ccc(C)c(Nc4nccc(-c5cccnc5)n4)c3)cc(C(F)(F)F)c2)cn1
6. CN1C2CCC1CC(OC(c1ccc(F)cc1)c1ccc(F)cc1)C2.Cl (centres undefined)
7. Cl.Oc1ccc2c3c1O[C@H]1c4[nH]c5c(c4C[C@@]4(O)[C@@H](C2)N(CC2CC2)CC[C@]314)C[C@@]1(O)[C@H]2Cc3ccc(O)c4c3[C@@]1(CCN2CC1CC1)[C@H]5O4
8. CCc1cccc(CC)c1NC(=O)c1nn(C)c2c1CCc1cnc(Nc3ccc(C(=O)NC4CCN(C)CC4)cc3OC(F)(F)F)nc1-2

*A*
1: 828; 2: 739; 3: 131; 4: 633; 5: 290; 6: 207; 7: 731; 8: 173

List reported Total Cell Count for each of these molecules:
1. C=C1/C(=C\C=C2/CCC[C@]3(C)[C@@H]([C@H](C)/C=C/[C@H](C)C(C)C)CC[C@@H]23)C[C@@H](O)C[C@@H]1O
2. CCOC(=O)c1c(C)[nH]c2ccc3c(c12)CN1CCc2cc(OC)ccc2C1O3 (centres undefined)
3. Cl.O=c1c2cccn2c2ccccc2n1CCCN1CCC(c2ccc(Cl)cc2)CC1

*A*
1: 475; 2: 148; 3: 191

List reported Total Cell Count for each of these molecules:
1. CN(C)C(=O)C(CCN1CCC(O)(c2ccc(Cl)cc2)CC1)(c1ccccc1)c1ccccc1.Cl [LOPERAMIDE HYDROCHLORIDE]
2. CCN1CCN(Cc2ccc(Nc3ncc(F)c(-c4cc(F)c5nc(C)n(C(C)C)c5c4)n3)nc2)CC1.CS(=O)(=O)O

*A*
1: 181; 2: 202

List reported Total Cell Count for each of these molecules:
1. CN1CCC(=C2c3ccccc3CC(=O)c3sccc32)CC1.O=C(O)/C=C/C(=O)O [KETOTIFEN FUMARATE]
2. O=C(Nc1ccc(-c2ccnc(Nc3ccc(N4CCOCC4)cc3)n2)cc1)[C@@H]1CCCN1

*A*
1. 215
2. 246

====

Answer each item with its documented Population Mitotic Cells (%).
system: U2OS; test: Multiplex assay against U2OS; assay type: toxicity, cell-based; settings: human, 24 h, 10 µM, compound concentration 10 uM, replicate 2
Answers are plain numbers, in %.

Example entries and their recorded answers appear below.
{"columns": ["Compound", "Experimental system", "Quantity kind", "Unit", "Reported"],
 "data": [
  ["Cc1ccc2nc(NCCN)c3ncc(C)n3c2c1.O=C(O)C(F)(F)F.O=C(O)C(F)(F)F", "U2OS", "Population Mitotic Cells (%)", "%", 38],
  ["CCn1cc(-c2ccnc3[nH]c(-c4cccc(CN(C)C)c4)cc23)c(-c2ccc(NC(=O)N(C)C)cc2)n1 [GSK-1070916]", "U2OS", "Population Mitotic Cells (%)", "%", 35],
  ["Cc1ccc(C(=O)Nc2cccc(C(F)(F)F)c2)cc1Nc1nc(-c2cccnc2)nc2c1cnn2C", "U2OS", "Population Mitotic Cells (%)", "%", 9],
  ["NC(=O)c1cccc(-c2cc(Nc3ccc(OC(F)(F)F)cc3)ncn2)c1", "U2OS", "Population Mitotic Cells (%)", "%", 85],
  ["CCCS(=O)(=O)c1nc(NC2CC2)cc(-c2ccc3c(ccn3C3CC(C)(C)NC(C)(C)C3)c2)n1", "U2OS", "Population Mitotic Cells (%)", "%", 10],
  ["CCOc1cc(C(=O)N2CCC(N3CCN(C)CC3)CC2)ccc1Nc1ncc2c(n1)N(C1CCCC1)c1ccccc1C(=O)N2C", "U2OS", "Population Mitotic Cells (%)", "%", 11],
  ["O=C1NC(=O)C(c2cnc3ccccn23)=C1c1cn2c3c(cc(F)cc13)CN(C(=O)N1CCCCC1)CC2 [LY-2090314]", "U2OS", "Population Mitotic Cells (%)", "%", 18],
  ["CNc1cc(Oc2cc(C(=O)Nc3cc(N4CCN(C)CC4)cc(C(F)(F)F)c3)ccc2C)ncn1", "U2OS", "Population Mitotic Cells (%)", "%", 23],
  ["COc1ccc(S(=O)(=O)N(CCO)c2ccccc2CN(C)C/C=C/c2ccc(Cl)cc2)cc1.O=P(O)(O)O", "U2OS", "Population Mitotic Cells (%)", "%", 83],
  ["COC(=N)c1nc2ccc3ncnc(Nc4ccc(OC)cc4F)c3c2s1", "U2OS", "Population Mitotic Cells (%)", "%", 25]
]}

List reported Population Mitotic Cells (%) for each of these compounds:
1. CCn1c(=O)c(-c2ccc(-c3cncs3)cc2Cl)cc2cnc(Nc3ccc(N4CCN(C)CC4)cc3)nc21
2. O=C(Nc1cccnn1)N1CCC(=Cc2cccc(Oc3ccc(C(F)(F)F)cn3)c2)CC1

*A*
72
16
